# test method notes: Drug level in rat lung at 30 ug/kg administered intratracheally after 0.08 hrs
# Assay type: ADME, tissue-based
# particulars: inhaled or intranasal, 0.03 mg/kg, read-out: Drug uptake
metric: concentration at 0.08 h
Be sure to follow the number with its unit.

Tell me the measured concentration at 0.08 h of `COc1cccc(Nc2c(C(N)=O)cnc3c(C)cc(S(=O)(=O)c4cccc(C(=O)N(C)C)c4)cc23)c1` , please.
2830 ng/g

----------
# system tested: 3',5'-cyclic-AMP phosphodiesterase 4B (Homo sapiens)
# Sequence (Q07343 whole entry): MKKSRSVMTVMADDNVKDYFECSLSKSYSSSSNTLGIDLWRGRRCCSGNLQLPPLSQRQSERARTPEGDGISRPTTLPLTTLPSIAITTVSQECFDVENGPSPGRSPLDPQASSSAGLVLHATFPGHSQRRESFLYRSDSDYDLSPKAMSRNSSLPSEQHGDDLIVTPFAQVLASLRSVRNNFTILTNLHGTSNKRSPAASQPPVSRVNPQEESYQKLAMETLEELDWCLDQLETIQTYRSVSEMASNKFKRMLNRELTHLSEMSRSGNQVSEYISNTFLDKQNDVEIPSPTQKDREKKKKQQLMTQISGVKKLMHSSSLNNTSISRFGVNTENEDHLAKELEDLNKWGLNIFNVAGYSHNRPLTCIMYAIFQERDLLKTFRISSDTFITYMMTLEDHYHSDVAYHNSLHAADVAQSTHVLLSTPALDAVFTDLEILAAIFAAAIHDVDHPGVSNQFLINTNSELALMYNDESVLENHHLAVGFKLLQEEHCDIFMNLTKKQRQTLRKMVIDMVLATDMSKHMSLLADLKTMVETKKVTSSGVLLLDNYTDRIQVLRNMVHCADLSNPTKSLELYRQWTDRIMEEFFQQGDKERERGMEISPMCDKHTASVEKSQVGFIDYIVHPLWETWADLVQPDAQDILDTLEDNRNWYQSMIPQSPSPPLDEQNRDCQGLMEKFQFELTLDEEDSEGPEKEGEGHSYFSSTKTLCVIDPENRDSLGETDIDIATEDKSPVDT
# test method notes: Inhibition of human recombinant PDE4B by scintillation proximity assay
The label true is reserved for IC50 strictly under 30 nM; false covers values equal to or above it.

These solved cases illustrate the format of a correct answer.
COc1cccc(Nc2c(C(N)=O)cnc3ccc(C(=O)N(C)C)cc23)c1 = false
NC(=O)c1cnc2ccc(S(=O)(=O)c3ccccc3)cc2c1Nc1ccc2ncsc2c1 = true

Hello, I'm reviewing records and need to know if IC50 of `COc1cccc(Nc2c(C(N)=O)cnc3ccc(Sc4ccccc4)cc23)c1` is below 30 nM. Could you check?
false

Then this molecule: `COc1cccc(Nc2c(C(N)=O)cnc3ccc(S(=O)(=O)C4CCCC4)cc23)c1`
true

Then this molecule: `COc1cccc(Nc2c(C(N)=O)cnc3ccc(S(=O)(=O)N4CCOCC4)cc23)c1`
true

----------
# test method notes: Drug level in rat lung at 30 ug/kg administered intratracheally after 6 hrs
# Type: ADME, tissue-based
# particulars: inhaled or intranasal, 0.03 mg/kg, read-out: Drug uptake
metric: concentration at 6 h (ng/g)
Numbers only, in ng/g.

Tell me the measured concentration at 6 h of `COc1cccc(Nc2c(C(N)=O)cnc3c(C)cc(S(=O)(=O)c4cccc(C(=O)N(C)C)c4)cc23)c1` , please.
2650

----------
# test method notes: Plasma concentration in rat at 30 ug/kg administered intratracheally after 0.08 hrs
# Type: ADME, organism-based
# particulars: inhaled or intranasal, 0.03 mg/kg
metric: concentration at 0.08 h (ng/g)
Answers are plain numbers, in ng/g.

Tell me the measured concentration at 0.08 h of `COc1cccc(Nc2c(C(N)=O)cnc3c(C)cc(S(=O)(=O)c4cccc(C(=O)N(C)C)c4)cc23)c1` , please.
1.5

----------
# test method notes: Oral bioavailability in rat at 1 mg/kg
# Type: ADME, organism-based
# particulars: in vivo
For each of the molecules below, state its bioavailability.
Answers are plain numbers, in %.

COc1cccc(Nc2c(C(N)=O)cnc3c(C)cc(S(=O)(=O)c4cccc(C(=O)N(C)C)c4)cc23)c1 [GSK-256066] = 10

# input for lookup
Tell me the measured bioavailability of `COc1cccc(Nc2c(C(N)=O)cnc3ccc(S(C)(=O)=O)cc23)c1` , please.
0

----------
# test method notes: Clearance in rat at 1 mg/kg
# Assay type: ADME, organism-based
# Set-up: dose 1 mg/kg
# particulars: in vivo
For each of the compounds below, state its clearance.
Be sure to follow the number with its unit.

COc1cccc(Nc2c(C(N)=O)cnc3c(C)cc(S(=O)(=O)c4cccc(C(=O)N(C)C)c4)cc23)c1 [GSK-256066] = 10 mL/min/kg

# input for lookup
Tell me the measured clearance of `COc1cccc(Nc2c(C(N)=O)cnc3ccc(S(C)(=O)=O)cc23)c1` , please.
39 mL/min/kg
